Entry source: patent US20220380459A1

- TESTED_SYSTEM: T1, V domain of human CD33 (human, UniProt P20138 18-139, limits assumed)
- T1 construct: recombinant, fully glycosylated V domain; also called Human CD33 V domain
- TEST_SUMMARY: SPR, Fab captured, 37C;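 note: biacore 8K surface plasmon resonance with Fabs held on an amine-coupled anti-Fab antibody surface, soluble monomeric CD33 domain injected as analyte, double-referenced 1:1 binding fit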
MEASUREMENT_NAME: koff (s⁻¹)
Numeric only. Scale: s⁻¹

Reference set (4 entries):
The measured koff associated with ADI-10177 Fab (Fab, V domains shown, Fab fragment; also called Ab2) VH: EVQLVESGGGLVQPGGSLRLSCAASGFTFSSYWMSWVRQAPGKGLEWVANIKQDGSEKYYVDSVKGRFTISRDNAKNSLYLQMNSLRAEDTAVYYCARPLNAGELDVWGQGTMVTVSS VL: DIQMTQSPSTLSASVGDRVTITCRASQSISSWLAWYQQKPGKAPKLLIYEASSLESGVPSRFSGSGSGTEFTLTISSLQPDDFATYYCQQLESYPLTFGGGTKVEIK reads 0.0857

Please fill in: koff reported for ADI-10158 Fab (Fab, V domains shown, Fab fragment; also called Ab14) VH: QVQLQQWGAGLLKPSETLSLTCAVYGGSFSGYYWSWIRQPPGKGLEWIGEIDHSGSTNYNPSLKSRVTISVDTSKNQFSLKLSSVTAADTAVYYCARQGIHGLRYFDLWGRGTLVTVSS VL: EIVMTQSPATLSLSPGERATLSCRASQSVSSYLAWYQQKPGQAPRLLIYDASNRATGIPARFSGSGSGTDFTLTISSLEPEDFAVYYCQQDHNFPYTFGGGTKVEIK = 0.133

// ADI-11807 Fab (Fab, V domains shown, Fab fragment; also called Ab5; I07) VH: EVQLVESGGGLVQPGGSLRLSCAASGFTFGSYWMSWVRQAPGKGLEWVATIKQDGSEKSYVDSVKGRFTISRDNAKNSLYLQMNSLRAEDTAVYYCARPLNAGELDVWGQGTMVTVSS VL: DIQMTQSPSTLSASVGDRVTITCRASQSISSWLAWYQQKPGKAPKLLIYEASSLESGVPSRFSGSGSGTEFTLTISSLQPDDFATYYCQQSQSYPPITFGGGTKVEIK : koff value = 0.000847

Noted for ADI-11830 Fab (Fab, V domains shown, Fab fragment; also called Ab9) VH: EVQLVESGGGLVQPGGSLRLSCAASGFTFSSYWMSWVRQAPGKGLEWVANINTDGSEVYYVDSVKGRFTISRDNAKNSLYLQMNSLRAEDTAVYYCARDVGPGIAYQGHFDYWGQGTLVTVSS VL: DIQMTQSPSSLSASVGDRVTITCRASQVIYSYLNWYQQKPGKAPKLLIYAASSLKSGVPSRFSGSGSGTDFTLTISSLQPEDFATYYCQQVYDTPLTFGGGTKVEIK : its koff reads 0.0299

Further cases:
response.value for ADI-10161 Fab (Fab, V domains shown, Fab fragment; also called Ab16) VH: EVQLVESGGGLVQPGGSLRLSCAASGFTFSSYWMSWVRQAPGKGLEWVANINQDGSEKYYVDSVKGRFTISRDNAKNSLYLQMNSLRAEDTAVYYCAREGGDSWYHAFDIWGQGTMVTVSS VL: DIQMTQSPSSVSASVGDRVTITCRASQGISSWLAWYQQKPGKAPKLLIYAASNLQSGVPSRFSGSGSGTDFTLTISSLQPEDFATYYCQQKLSLPLTFGGGTKVEIK (field: koff) = 0.124
